system: caterpillars of the armyworm (Spodoptera frugiperda); assay: Spodoptera frugiperda test (SPODFR spray treatment); assay type: in vivo; conditions: 168 h, 100 g/ha, after 7 days, read-out: activity in %
Readout Label: pest or weed control at 100 g/ha

Example molecules with recorded pest or weed control at 100 g/ha:
CNC(=O)c1cc(Cl)cc(C)c1NC(=O)c1cc(Cn2nnc3cc([N+](=O)[O-])ccc32)nn1-c1ncccc1Cl	100%
O=C(NCC1CC1)c1cc(Cl)cc(Cl)c1NC(=O)c1cc(Cn2ncc(C(F)(C(F)(F)F)C(F)(F)F)n2)nn1-c1ncccc1Cl	100%
CSC[C@H](C)NC(=O)c1cc(C#N)cc(C)c1NC(=O)c1cc(Cn2cc(C(F)(C(F)(F)F)C(F)(F)F)nn2)nn1-c1ncccc1Cl	100%
CNC(=O)c1cc(I)cc(C)c1NC(=O)c1cc(Cn2cc(C(F)(C(F)(F)F)C(F)(F)F)nn2)nn1-c1ncccc1Cl	100%
CCNC(=O)c1cc(I)cc(C)c1NC(=O)c1cc(Cn2ncc(C(F)(F)C(F)(F)F)n2)nn1-c1ncccc1Cl	100%

Sample Cc1cc(C#N)cc(C(=O)NC2CC2)c1NC(=O)c1cc(Cn2cc(C(F)(F)F)nn2)nn1-c1ccccc1Cl — what was its pest or weed control at 100 g/ha? 100%

###

Known chromatographic logP of a selection of compounds
Assay: log P determination by HPLC on reversed-phase columns (EEC Directive 79/831 Annex V.A8)
Type: physicochemical
Conditions: pH 2.7
Experimental: Determination by LC-MS in the acidic range takes place at a pH of 2.7 using 0.1% aqueous formic acid and acetonitrile (containing 0.1% formic acid) as eluents, with a linear gradient from 10% acetonitrile to 95% acetonitrile. Calibration was carried out using unbranched alkan-2-ones (having 3 to 16 carbon atoms) with known log P values (the log P values are determined from the retention times by linear interpolation between two successive alkanones).
Kindly provide the number alone.

Sample records with chromatographic logP:
CNC(=O)c1cc(Cl)cc(C)c1NC(=O)c1cc(Cn2cc(C3CC3)nn2)nn1-c1ncccc1Cl [Example 13]	2.14
Cc1cc(C#N)cc(C(=O)NC(C)(C)C)c1NC(=O)c1cc(Cn2nnc3cc(Br)ccc32)nn1-c1ncccc1Cl [Example 106]	3.31
Cc1cc(Cl)cc(C(=O)NCC2CC2)c1NC(=O)c1cc(Cn2ncc(C(F)(F)F)n2)nn1-c1ncccc1Cl [Example 141]	3.55

// below: chromatographic logP requested for another compound
Quick one: chromatographic logP for Cc1cc(C#N)cc(C(=O)NC(C)(C)C)c1NC(=O)c1cc(Cn2ncc(C(C)(C)C)n2)nn1-c1ncccc1Cl [Example 60] ? 3.74

###

test: log P determination by HPLC on reversed-phase columns (EEC Directive 79/831 Annex V.A8); type: physicochemical; conditions: pH 2.7
Each item that follows carries a reported chromatographic logP.
Just the number, please, no unit after it.

Cc1cc(C#N)cc(C(=O)NC(C)(C)C)c1NC(=O)c1cc(Cn2cc(-c3ccccc3Cl)nn2)nn1-c1ncccc1Cl	3.45

Fill in the blank: the reported chromatographic logP of Cc1cc(C#N)cc(C(=O)NC2CC2)c1NC(=O)c1cc(Cn2cc(C(F)(F)C(F)(F)F)nn2)nn1-c1ncccc1Cl is ____. 2.89

Could you do the same for Cc1cc(Br)cc(C(=O)NC(C)C)c1NC(=O)c1cc(Cn2ncc(C(F)(F)F)n2)nn1-c1ncccc1Cl , please? 3.55

Again, but for CNC(=O)c1cc(C#N)cc(C)c1NC(=O)c1cc(Cn2ncc(C(F)(C(F)(F)F)C(F)(F)F)n2)nn1-c1ncccc1Cl 3.39

And the next one, CNC(=O)c1cc(C#N)cc(C)c1NC(=O)c1cc(Cn2ncc(-c3ccc(F)cc3)n2)nn1-c1ncccc1Cl ? 2.96

Try the compound Cc1cc(I)cc(C(=O)NC(C)C)c1NC(=O)c1cc(Cn2nc(C(F)(F)F)c(C(F)(F)F)n2)nn1-c1ncccc1Cl 4.47

# repeat for CNC(=O)c1cc(C#N)cc(C)c1NC(=O)c1cc(Cn2cc(-c3ccc(C(F)(F)F)cc3)nn2)nn1-c1ncccc1Cl 2.99

###

assay: log P determination by HPLC on reversed-phase columns (EEC Directive 79/831 Annex V.A8); assay type: physicochemical; conditions: reversed-phase C18 HPLC column, pH 2.7; HPLC on reversed-phase columns (C 18), EEC Directive 79/831 Annex V.A8; read-out: logP
Readout Label: chromatographic logP
Give the figure only, with no unit attached.

CSC[C@H](C)NC(=O)c1cc(I)cc(C)c1NC(=O)c1cc(Cn2ncc(C(F)(C(F)(F)F)C(F)(F)F)n2)nn1-c1ncccc1Cl [Example 270]	4.73
CSC[C@H](C)NC(=O)c1cc(Cl)cc(C)c1NC(=O)c1cc(Cn2cc(C(F)(C(F)(F)F)C(F)(F)F)nn2)nn1-c1ncccc1Cl [Example 230]	4.04
O=C(NCC1CC1)c1cc(Cl)cc(Cl)c1NC(=O)c1cc(Cn2cc(C(F)(C(F)(F)F)C(F)(F)F)nn2)nn1-c1ncccc1Cl [Example 245]	3.84
Cc1cc(C#N)cc(C(=O)NC(C)C2CC2)c1NC(=O)c1cc(Cn2nc(C(F)(F)F)c(C(F)(F)F)n2)nn1-c1ncccc1Cl (centres unmarked) [Example 413]	4.11
CNC(=O)c1cc(C#N)cc(C)c1NC(=O)c1cc(Cn2nncc2C(F)(C(F)(F)F)C(F)(F)F)nn1-c1ccccc1Cl [Example 298]	3.46

Please turn your attention to the following entry.
May I ask what chromatographic logP has been recorded for CNC(=O)c1cc(C#N)cc(C)c1NC(=O)c1cc(Cn2ncc(C(F)(F)F)n2)nn1-c1ncccc1Br [Example 9] ? 2.33

###

experiment: log P determination by HPLC on reversed-phase columns (EEC Directive 79/831 Annex V.A8); assay type: physicochemical; conditions: pH 2.7; HPLC on reversed-phase columns (C 18), EEC Directive 79/831 Annex V.A8; read-out: logP
Here the recorded chromatographic logP is given for each entry.
// print number alone

Reference set (6 entries):
CSC[C@H](C)NC(=O)c1cc(I)cc(C)c1NC(=O)c1cc(Cn2ncc(C(F)(F)C(F)(F)C(F)(F)F)n2)nn1-c1ncccc1Cl [Example 373]	4.65
Cc1cc(I)cc(C(=O)NC(C)(C)C)c1NC(=O)c1cc(Cn2ncc(C(F)(F)C(F)(F)C(F)(F)F)n2)nn1-c1ncccc1Cl [Example 385]	4.89
CSC[C@H](C)NC(=O)c1cc(Cl)cc(C)c1NC(=O)c1cc(Cn2cc(C(F)(F)C(F)(F)C(F)(F)F)nn2)nn1-c1ncccc1Cl [Example 324]	3.99
Cc1cc(I)cc(C(=O)NCC2CC2)c1NC(=O)c1cc(Cn2ncc(C(F)(F)C(F)(F)C(F)(F)F)n2)nn1-c1ncccc1Cl [Example 382]	4.59
Cc1cc(I)cc(C(N)=O)c1NC(=O)c1cc(Cn2ncc(C(F)(F)C(F)(F)C(F)(F)F)n2)nn1-c1ncccc1Cl [Example 381]	3.7
Cc1cc(C#N)cc(C(=O)NC2CC2)c1NC(=O)c1cc(Cn2ncc(C(F)(F)C(F)(F)C(F)(F)F)n2)nn1-c1ncccc1Cl [Example 376]	3.63

Could you now look at the following molecule, please?
I have this molecule here, CCNC(=O)c1cc(C#N)cc(C)c1NC(=O)c1cc(Cn2ncc(C(F)(F)C(F)(F)C(F)(F)F)n2)nn1-c1ncccc1Cl [Example 372] , and I need its recorded chromatographic logP. 3.65

###

test system: caterpillars of the armyworm (Spodoptera frugiperda); assay: Spodoptera frugiperda test (SPODFR spray treatment); format: in vivo; conditions: 168 h, 100 g/ha, after 7 days, read-out: activity in %
Readout Label: pest or weed control at 100 g/ha (%)
Report the figure in % without appending any unit label.

Cc1cc(I)cc(C(=O)NCC2CC2)c1NC(=O)c1cc(Cn2cc(C(F)(F)F)nn2)nn1-c1ncccc1Cl	100
Cc1cc(I)cc(C(=O)NC2CC2)c1NC(=O)c1cc(Cn2cc(C(F)(F)F)nn2)nn1-c1ncccc1Cl	100
CNC(=O)c1cc(C#N)cc(C)c1NC(=O)c1cc(Cn2cc(C(F)(C(F)(F)F)C(F)(F)F)nn2)nn1-c1ccccc1Cl	100
CNC(=O)c1cc(C#N)cc(C)c1NC(=O)c1cc(Cn2ncc(-c3ccccc3Cl)n2)nn1-c1ncccc1Cl	100
CSC[C@H](C)NC(=O)c1cc(C#N)cc(C)c1NC(=O)c1cc(Cn2nc(C(F)(F)F)c(C(F)(F)F)n2)nn1-c1ncccc1Cl	100

Consider the compound Cc1cc(C#N)cc(C(N)=O)c1NC(=O)c1cc(Cn2ncc(C(F)(C(F)(F)F)C(F)(F)F)n2)nn1-c1ncccc1Cl and give its measured pest or weed control at 100 g/ha. 100

Now the same for CNC(=O)c1cc(Cl)cc(C)c1NC(=O)c1cc(Cn2cc(-c3ccc(Cl)cc3)nn2)nn1-c1ncccc1Cl 100
